# growth per entry
tested on: SK-MEL-2 melanoma; assay: NCI-60 one-dose screen, 48 h (100 = growth as untreated, 0 = no growth, -100 = all killed); conditions: 10 µM unless noted
Compounds without any hit were thinned out: in the full panel of roughly 83,000, 20% have a hit.
Write it as a number; the unit % goes unstated.

COc1cc(Cn2cc3c(c2)-c2onc(CO)c2CC3)cc(OC)c1OC	90.2
COc1ccc(C2=NN(C(=O)COc3ccc(Cl)cc3)C(O)(c3cc(F)c(Cl)cc3Cl)C2)cc1 (centres undefined)	99.2
O=C(/C=C/c1ccccc1)Oc1ccc(/C=C/c2cc(OC(=O)/C=C/c3ccccc3)cc(OC(=O)/C=C/c3ccccc3)c2)cc1	105

--- query ---
[in] Reported growth for C#C[C@@]1(O)[C@@H](CO)O[C@@H](n2cc(Br)c3c(Cl)ccnc32)[C@@H]1O : what is it?
[out] 68.7

###

tested on: OVCAR-5 ovarian; experiment: NCI-60 one-dose screen, 48 h; conditions: 10 µM unless noted
About 83,000 compounds went through this panel and 20% of them were active in at least one assay; those are over-represented in the sample as a whole. Activity calls are given as the source filed them. Rule for the calls: active = growth percent below 10; inactive = the rest.
Please answer using one outcome listed in active, inactive

Before answering, review these 5 worked examples.
CC1=C2C(=C[C@@](C)(CO)[C@@H]2OC(=O)N(C)CCN(C)C(=O)OC(C)(C)C)C(=O)[C@](C)(O)C12CC2	inactive
CC(=O)c1cc2c(c(O)c1C)C(=O)C(=O)c1c(O)cccc1-2	active
S=C=NP1(N=C=S)=NP(N=C=S)(N=C=S)=NP(N=C=S)(N=C=S)=NP(N=C=S)(N=C=S)=N1 (configuration not stated)	inactive
CC(=O)N[C@@H](CNC(=O)c1cc(NC(=O)c2cc(NC(=O)c3cc(NC(=O)c4nccn4C)cn3C)cn2C)cn1C)CC(=O)Nc1cn(C)c(C(=O)Nc2cc(C(=O)Nc3cc(C(=O)Nc4cc(C(=O)NCCCN(C)CCCNC(=O)c5cccc(C(=O)O)c5)n(C)c4)n(C)c3)n(C)c2)n1	inactive
COc1ccc(/C(=C/c2cc(OC)c(OC)c(OC)c2)[N+](=O)[O-])cc1	inactive

[in] What did this assay record as the result for CC(C)(C)C(=O)Nc1nc2c(s1)CCc1ccn(S(=O)(=O)c3ccccc3)c1-2 ?
[out] inactive

###

# growth per entry
tested on: NCI-H226 lung; test: NCI-60 one-dose screen, 48 h (100 = growth as untreated, 0 = no growth, -100 = all killed); conditions: 10 µM unless noted
About 83,000 compounds went through this panel and 20% of them were active in at least one assay; those are over-represented in the sample as a whole.
Write it as a number; the unit % goes unstated.

Previously resolved entries follow.
OC[C@@H](O)C(O[C@@H]1O[C@H](CO)[C@H](O)[C@H](O)[C@H]1O)[C@H](O)[C@@H](O)CO (stereo partly specified)	103
Clc1ccc(CN2COc3c(ccc4cccnc34)C2)cc1Cl	-11.5
O=c1c(-c2ccc3c(c2)OCO3)coc2c(CO)c(O)ccc12	-35.6
O=C(Nc1ccc(-n2ccc3c(NC(=O)c4ccccc4)ncnc32)cc1)Nc1ccc(Cl)c(C(F)(F)F)c1	8.8
COc1cc(C(=O)N2CCN(C(=O)c3cc(OC)c(OCc4ccccc4)cc3N)CC2)c(N)cc1OCc1ccccc1	122

--- query ---
[in] Item: O=c1nc(N2CCOCC2)oc2c(-c3cccc4ccccc34)cccc12 Test system: NCI-H226 lung Read-out: growth Value: ?
[out] 66.6

###

Tested on: SN12C renal
Experiment: NCI-60 one-dose screen, 48 h (100 = growth as untreated, 0 = no growth, -100 = all killed)
Settings: 10 µM unless noted
Method: Growth inhibition of the SN12C human tumor cell line is measured as a screen for anti-cancer activity. Cells are grown in 96 well plates and exposed to the test compound for 48 hours. Compounds are tested at a single concentration, which is 10^-5 M for most compounds. The reported endpoint is percent growth (GI% or GIPRCNT), where numbers from 0 - 100% represent growth inhibition, and numbers from -100% - 0 represent cell death. For example, a value of 40 represents 60% growth inhibition. […]
This is part of a sample that, as a whole, favours compounds with a hit. Of some 83,000 tested, about 20% had one in any assay.
Assign 1 whenever growth does not fall below 90%; assign 0 whenever it does.

Before answering, review these 6 worked examples.
COc1ccc(Cl)cc1NC(=O)c1cc2c(n1C)-c1nc(NC(=O)C(C)(C)C)sc1CC2	1
N#Cc1c(N)nc2c(c1N)C(c1ccc(Cl)cc1)C1=C(CCCC1=O)N2c1sc2c(c1C#N)CCCC2 (stereo not drawn)	1
Nc1nccc2c1ccn2-c1ccc(NC(=O)c2ccc(N3CCOCC3)c(C(F)(F)F)c2)cc1	0
COc1ccc(CCNC=O)cc1OC	1
CC(=O)c1ccc2c(c1)C1C=CCC1[C@H](c1cc3c(cc1Br)OCO3)N2 (stereo partly drawn)	0
COc1cc(-c2nc(N)n(CC(=O)Nc3ccc(/C(C)=N\O)cc3)n2)cc(OC)c1OC	1

[in] Assess whether reported growth for Cc1cc(N2CCOCC2)nc(N(CCNc2ccnc3cc(Cl)ccc23)Cc2ccco2)n1 sits at 90% or higher.
[out] 0

[in] Moving on to the next molecule: CCOc1ccc(NC(=O)Nc2cc(C(C)C)ccc2C)cc1
[out] 0

[in] Moving on to the next molecule: C=C1C(=O)O[C@H]2[C@H]1CC/C(COC(=O)c1ccc(Cl)nc1)=C\CC[C@@]1(C)O[C@@H]21
[out] 0

[in] Moving on to the next molecule: CN[C@@H](CCCNC(N)=NC/C=C(/C)CCC=C(C)C)C(=O)N(C)[C@@H](CCCNC(N)=NCC=C(C)C)C(=O)N[C@H](C)[C@H](OS(=O)(=O)O)c1ccc(OS(=O)(=O)O)c(COS(=O)(=O)O)c1
[out] 1

[in] Moving on to the next molecule: Cc1cn(C2CC(F)C(CO)O2)c(=O)[nH]c1=O (stereo not drawn)
[out] 1

###

tested on: COLO 205 colon; test: NCI-60 one-dose screen, 48 h (100 = growth as untreated, 0 = no growth, -100 = all killed); conditions: 10 µM unless noted
About 83,000 compounds went through this panel and 20% of them were active in at least one assay; those are over-represented in the sample as a whole.
# growth per entry
Write it as a number; the unit % goes unstated.

O=C(O)c1cn(C2CC2)c2cc(N3CCN(C(=O)CSc4nc(NS(=O)(=O)c5ccccc5)cc(=O)[nH]4)CC3)c(F)cc2c1=O	109
COc1ccc(-c2[nH]c3ccccc3c2/C=C(\C#N)S(=O)(=O)c2ccccc2)cc1	-39.4
CC(C)(C)OC(=O)N1CCN(CCn2cc(C(F)(F)F)c3c(Cl)ncnc32)CC1	102

[in] Reported growth for CCN(CC)CCNC(=O)c1c(C)[nH]c(/C=C2\C(=O)Nc3cc(NC(=O)NC(=O)c4ccc(OC)cc4F)ccc32)c1C : what is it?
[out] 94.7

[in] Moving on to the next compound: NC(=O)C1=C[C@H]2[C@H]3C=C[C@@]2(O)C(=O)O[C@@H]3O1
[out] 38.8

[in] Moving on to the next compound: CC(=S)Nc1ccccc1
[out] 99.8

[in] Moving on to the next compound: CCc1cccc(C)c1NC(=O)c1sc2nc3c(cc2c1N)CCCCC3
[out] 7.73

[in] Moving on to the next compound: Clc1ccc(OCc2nc(-c3ccccc3)n[nH]2)c(Cl)c1
[out] 90.5

[in] Moving on to the next compound: CCCCCCCCCCCCCCCCCCNCc1ccc(Cl)cc1
[out] -83.9

[in] Moving on to the next compound: O=S(=O)(CCN1CCOCC1)Nc1cc(-c2ccc3ncnc(Nc4ccc(F)c(Cl)c4)c3c2)cnc1Cl
[out] -6.12

###

system: COLO 205 colon; test: NCI-60 one-dose screen, 48 h; conditions: 10 µM unless noted
About 83,000 compounds went through this panel and 20% of them were active in at least one assay; those are over-represented in the sample as a whole. Active and inactive are the calls of the source. Rule for the calls: active = growth percent below 10; inactive = the rest.
Please answer using one outcome listed in active, inactive

Before answering, review these 4 worked examples.
CCOC(=O)n1cnc2c(Cl)ncnc21	inactive
COc1ccc(-c2nn(-c3ccc(NC(=O)c4ccc(Cl)c(C(F)(F)F)c4)cc3)cc2-c2ccncc2)cc1Cl	active
CC(C)(C)C(=O)Nc1nc2c(s1)CCc1ccn(S(=O)(=O)c3ccccc3)c1-2	inactive
CN(C)CCCOc1c(Br)cc(/C=C/C(=O)N(C)CCc2cc(Br)c(OCCCN(C)C)c(Br)c2)cc1Br	inactive

[in] What did this assay record as the result for COc1ccc2c(c1)nnn1c3ncccc3c(N=O)c21 ?
[out] active

###

system: MCF7 breast; experiment: NCI-60 one-dose screen, 48 h (100 = growth as untreated, 0 = no growth, -100 = all killed); conditions: 10 µM unless noted
This is part of a sample that, as a whole, favours compounds with a hit. Of some 83,000 tested, about 20% had one in any assay.
endpoint: growth (%)
Write it as a number; the unit % goes unstated.

Previously resolved entries follow.
CC(=O)Oc1ccc(C(OC(C)=O)OC(C)=O)cc1	98.5
C=CC(=O)Nc1cccc(Nc2nc(Nc3ccc(OCCOC(F)F)cc3)ncc2F)c1	23.9
c1ccc2c(c1)Oc1cccnc1-n1nccc1-2	98.6
COc1ccc2c(c1)C(=O)/C(=C/c1cccc(OCC(=O)c3ccccc3)c1)O2	32
COc1ccccc1P(c1ccccc1OC)c1ccccc1OC	95.9

[in] Item: CCN(CC)CCC(C(=O)O)(c1ccccc1)c1ccccc1 Test system: MCF7 breast Read-out: growth Value: ?
[out] 91.8

[in] Moving on to the next compound: CNCCCOc1c(Br)cc(CCNC(=O)/C(Cc2ccc(OC)c(Br)c2)=N/O)cc1Br
[out] 19

[in] Moving on to the next compound: COc1ccc(NC(=O)COCCOCCNC[C@@H]2C(=O)O[C@H]3[C@H]2CC/C(COC(=O)OC/C2=C/CC[C@@]4(C)O[C@H]4[C@H]4OC(=O)[C@@H](CN(C)C)[C@@H]4CC2)=C\CC[C@@]2(C)O[C@@H]32)c(O)c1C(N)=O
[out] 19.4

[in] Moving on to the next compound: COc1ccc(-c2c(C#N)cnc(N)c2-c2nc3cc(C)c(C)cc3[nH]2)cc1
[out] 50.9

These data points were gathered from PubChem BioAssay (NCI).
